assayed.target: BaF3 cell lines stably transfected with kinase EGFR L858R (Homo sapiens, UniProt P00533, L858R, cells depend on it)
Sequence (P00533 whole entry L858R): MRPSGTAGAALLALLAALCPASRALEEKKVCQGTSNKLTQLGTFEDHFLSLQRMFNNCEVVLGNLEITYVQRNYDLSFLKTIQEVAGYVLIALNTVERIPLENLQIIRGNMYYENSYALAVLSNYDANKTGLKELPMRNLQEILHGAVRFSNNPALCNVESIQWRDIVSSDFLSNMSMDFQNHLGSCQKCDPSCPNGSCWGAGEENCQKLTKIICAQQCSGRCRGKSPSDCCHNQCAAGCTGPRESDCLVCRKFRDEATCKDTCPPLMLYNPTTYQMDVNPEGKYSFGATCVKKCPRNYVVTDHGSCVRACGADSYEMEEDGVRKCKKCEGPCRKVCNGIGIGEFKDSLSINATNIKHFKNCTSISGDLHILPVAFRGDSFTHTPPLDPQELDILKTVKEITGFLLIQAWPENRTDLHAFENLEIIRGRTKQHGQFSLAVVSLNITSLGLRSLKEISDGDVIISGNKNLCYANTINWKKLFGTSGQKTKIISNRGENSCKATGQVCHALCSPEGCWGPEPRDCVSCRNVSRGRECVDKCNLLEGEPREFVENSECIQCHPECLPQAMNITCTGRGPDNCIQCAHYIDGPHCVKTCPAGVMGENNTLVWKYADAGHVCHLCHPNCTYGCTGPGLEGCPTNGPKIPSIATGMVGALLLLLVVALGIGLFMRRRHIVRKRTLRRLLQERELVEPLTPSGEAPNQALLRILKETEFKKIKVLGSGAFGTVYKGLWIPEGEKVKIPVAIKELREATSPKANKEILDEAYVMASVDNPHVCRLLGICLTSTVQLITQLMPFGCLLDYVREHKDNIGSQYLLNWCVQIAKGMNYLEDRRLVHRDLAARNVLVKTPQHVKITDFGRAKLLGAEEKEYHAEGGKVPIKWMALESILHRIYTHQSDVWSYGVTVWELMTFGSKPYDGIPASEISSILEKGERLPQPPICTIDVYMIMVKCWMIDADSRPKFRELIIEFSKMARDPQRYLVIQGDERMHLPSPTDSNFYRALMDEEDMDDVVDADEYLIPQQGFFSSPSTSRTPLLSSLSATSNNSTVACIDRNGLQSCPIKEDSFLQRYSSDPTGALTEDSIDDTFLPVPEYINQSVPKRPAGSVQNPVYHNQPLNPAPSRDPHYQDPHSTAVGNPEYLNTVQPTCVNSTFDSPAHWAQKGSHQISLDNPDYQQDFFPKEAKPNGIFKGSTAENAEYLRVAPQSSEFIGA
experimental.details: Growth inhibition of BaF3 cell line stably transfected with kinase EGFR L858R (MTS)
Format: cell-based
test.settings: 48 h, read-out: growth inhibitory activity IC50, L858R
measured.quantity: GI50

{"molecule": "C=Cc1cnc(Nc2cc(CC)c(N3CCC(N(C)C)CC3)cc2OC)nc1Nc1ccc2nccnc2c1S(C)(=O)=O [III-2]", "measured.quantity": "GI50", "result.value": "500 to 2500 nM"}
{"molecule": "C=Cc1cnc(Nc2cc3c(cc2F)CCN(C)C3)nc1Nc1ccc2nccnc2c1N(C)S(C)(=O)=O [II-74]", "measured.quantity": "GI50", "result.value": "≤ 50 nM"}
{"molecule": "C=Cc1cnc(Nc2cc(CC)c(N3CCC(N4CCN(C)CC4)CC3)nc2OC)nc1Nc1ccc2nccnc2c1S(=O)(=O)NC [IV-4]", "measured.quantity": "GI50", "result.value": "500 to 2500 nM"}
{"molecule": "C=Cc1cnc(Nc2cnn(C)c2)nc1Nc1ccc2nccnc2c1N(C)S(C)(=O)=O [II-65]", "measured.quantity": "GI50", "result.value": "50 to 500 nM"}

###

assayed.target: BaF3 cell lines stably transfected with kinase EGFR Del (Homo sapiens, UniProt P00533, cells depend on it, form not given)
Sequence (P00533 with tags, fused parts or gaps DEL746-750): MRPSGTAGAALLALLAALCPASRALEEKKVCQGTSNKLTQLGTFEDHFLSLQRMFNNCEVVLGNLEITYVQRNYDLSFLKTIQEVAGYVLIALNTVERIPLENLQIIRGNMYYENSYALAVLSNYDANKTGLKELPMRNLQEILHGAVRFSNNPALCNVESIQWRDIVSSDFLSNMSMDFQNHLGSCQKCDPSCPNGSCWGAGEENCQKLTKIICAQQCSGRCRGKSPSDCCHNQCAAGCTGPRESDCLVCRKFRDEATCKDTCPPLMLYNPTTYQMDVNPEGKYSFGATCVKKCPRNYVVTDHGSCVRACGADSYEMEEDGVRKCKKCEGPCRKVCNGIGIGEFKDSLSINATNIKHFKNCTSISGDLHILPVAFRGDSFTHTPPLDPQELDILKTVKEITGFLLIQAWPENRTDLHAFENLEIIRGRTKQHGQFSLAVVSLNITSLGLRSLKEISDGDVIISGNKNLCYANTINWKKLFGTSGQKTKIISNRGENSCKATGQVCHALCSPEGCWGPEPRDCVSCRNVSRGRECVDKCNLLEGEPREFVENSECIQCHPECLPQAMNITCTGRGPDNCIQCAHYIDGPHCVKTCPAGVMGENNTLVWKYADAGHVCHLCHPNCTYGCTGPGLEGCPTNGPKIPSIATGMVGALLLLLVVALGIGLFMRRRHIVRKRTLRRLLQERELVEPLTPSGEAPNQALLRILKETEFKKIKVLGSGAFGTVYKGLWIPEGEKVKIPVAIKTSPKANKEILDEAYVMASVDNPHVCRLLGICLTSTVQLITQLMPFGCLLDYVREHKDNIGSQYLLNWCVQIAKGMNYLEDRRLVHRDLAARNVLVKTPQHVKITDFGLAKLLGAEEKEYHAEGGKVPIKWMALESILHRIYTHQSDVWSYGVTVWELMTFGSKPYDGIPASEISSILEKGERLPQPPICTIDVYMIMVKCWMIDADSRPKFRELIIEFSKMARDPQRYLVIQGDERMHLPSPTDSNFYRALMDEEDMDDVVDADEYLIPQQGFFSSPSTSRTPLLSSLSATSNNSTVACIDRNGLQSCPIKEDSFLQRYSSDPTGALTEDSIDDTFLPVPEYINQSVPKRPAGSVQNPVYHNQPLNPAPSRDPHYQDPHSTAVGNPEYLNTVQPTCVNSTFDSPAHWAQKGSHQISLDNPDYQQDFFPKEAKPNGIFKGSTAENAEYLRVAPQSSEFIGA
experimental.details: Growth inhibition of BaF3 cell line stably transfected with kinase EGFR Del (MTS)
Format: cell-based
test.settings: 48 h, read-out: growth inhibitory activity IC50, Del
Recorded GI50, one value per entry.

{"compound": "C=Cc1cnc(Nc2cc(C(C)C)c(N3CCC(N4CCN(C)CC4)CC3)cc2OC)nc1Nc1ccc2nccnc2c1P(C)(C)=O [Compound I-16]", "GI50": "50 to 500 nM"}
{"compound": "C=Cc1cnc(Nc2cc(CC)c(N3CCC(N(C)C)C3)cc2OC)nc1Nc1ccc2nccnc2c1NS(C)(=O)=O (centres unmarked) [II-40]", "GI50": "≤ 50 nM"}
{"compound": "C=Cc1cnc(Nc2cc(CC3CC3)c(N3CCC(N4CCN(C)CC4)CC3)cc2OC)nc1Nc1ccc2nccnc2c1N(C)S(C)(=O)=O [II-7]", "GI50": "≤ 50 nM"}
{"compound": "C=Cc1cnc(Nc2cc(CC)c(N3CCN(C)CC3)cc2OC)nc1Nc1ccc2nccnc2c1NS(C)(=O)=O [II-41]", "GI50": "≤ 50 nM"}
{"compound": "C=Cc1cnc(Nc2cc(C3CC3)c(N3CCC(N4CCN(C)CC4)CC3)cc2OC)nc1Nc1ccc2nccnc2c1P(C)(C)=O [Compound I-17]", "GI50": "50 to 500 nM"}
{"compound": "C=Cc1cnc(Nc2cc(C3CC3)c(N3CCC(N4CCN(C)CC4)CC3)cc2OC)nc1Nc1ccc2nccnc2c1S(C)(=O)=O [III-12]", "GI50": "50 to 500 nM"}
{"compound": "C=C(C)c1cnc(Nc2cc(C)c(N3CCC(N4CCN(C)CC4)CC3)nc2OC)nc1Nc1ccc2nccnc2c1P(C)(C)=O [Compound I-20]", "GI50": "500 to 2500 nM"}
{"compound": "C=Cc1cnc(Nc2cc(CC)c(N3CCC(N4CCN(C)CC4)CC3)cc2OC)nc1Nc1ccc2nccnc2c1N(C)S(=O)(=O)C1CC1 [II-11]", "GI50": "≤ 50 nM"}
{"compound": "C=Cc1cnc(Nc2cc(CC)c(N3CCN(C)CC3)cc2OC)nc1Nc1ccc2nccnc2c1N(C)S(C)(=O)=O [II-4]", "GI50": "≤ 50 nM"}
{"compound": "C=C(C)c1cnc(Nc2cn[nH]c2)nc1Nc1ccc2nccnc2c1N(C)S(C)(=O)=O [II-70]", "GI50": "50 to 500 nM"}
{"compound": "C=Cc1cnc(Nc2cc(CC)c(N3CCN(C)CC3)cc2OC)nc1Nc1ccc2nccnc2c1S(=O)(=O)NC [IV-15]", "GI50": "50 to 500 nM"}
{"compound": "C=Cc1cnc(Nc2cc(CC)c(N(C)CCN(C)C)cc2OC)nc1Nc1ccc2nccnc2c1N(C)S(C)(=O)=O [II-51]", "GI50": "50 to 500 nM"}
{"compound": "C=Cc1cnc(Nc2cc(CC3CC3)c(N3CCC(N4CCN(C)CC4)CC3)cc2OC)nc1Nc1ccc2nccnc2c1P(C)(C)=O [Compound I-7]", "GI50": "≤ 50 nM"}
{"compound": "C=Cc1cnc(Nc2cc3c(cc2C)CCN(C)C3)nc1Nc1ccc2nccnc2c1N(C)S(C)(=O)=O [II-72]", "GI50": "50 to 500 nM"}
